target: recombinant human PD-L1 (Sino Biological Inc.) (human, UniProt Q9NZQ7 19-239); experiment: PD-L1/CD80 blocking assay, competitor CD80, format not described
Sequence (Q9NZQ7 19-239 limits assumed): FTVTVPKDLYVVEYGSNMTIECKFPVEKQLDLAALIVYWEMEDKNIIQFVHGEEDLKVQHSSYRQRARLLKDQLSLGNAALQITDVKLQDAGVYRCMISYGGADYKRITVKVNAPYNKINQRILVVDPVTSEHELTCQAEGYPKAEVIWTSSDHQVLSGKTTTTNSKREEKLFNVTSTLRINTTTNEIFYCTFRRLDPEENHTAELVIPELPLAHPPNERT
observed_property: IC50 (nM)
Response body: numeric value in nM, unit text excluded.

binder	IC50 / nM
humanized anti-human PD-L1 monoclonal antibody VLS10-VHS7 P2 (antibody, human IgG1, kappa, V domains shown) VH: QVQLVQSGAEVKKPGSSVKVSCTASGFNIEDTYIHWVRQAPGQGLEWMGRIDPASGNTKYDPKFQGRVTITADTSTNTAYMELSSLRSEDTAVYYCGRGLGAWFAYWGQGTLVTVSS VL: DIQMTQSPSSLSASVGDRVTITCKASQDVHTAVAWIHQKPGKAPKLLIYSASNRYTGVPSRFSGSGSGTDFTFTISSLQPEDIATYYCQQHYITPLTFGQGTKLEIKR	0.857
humanized anti-human PD-L1 monoclonal antibody VLS15-VHS12 (antibody, human IgG1, kappa, V domains shown) VH: EVQLVQSGAEVKKPGSSVKVSCKASGFNIEDTYIHWVRQAPGQGLEWMGRIDPANGNTKYDPKFQGRVTITADTSTNTAYMELSSLRSEDTAVYYCGRGLGAWFAYWGQGTLVTVSS VL: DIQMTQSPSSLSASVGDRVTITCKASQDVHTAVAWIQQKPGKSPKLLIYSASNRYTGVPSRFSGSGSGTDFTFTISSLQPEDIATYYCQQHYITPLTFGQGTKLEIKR	0.802
humanized anti-human PD-L1 monoclonal antibody VLS10-VHS7 (antibody, human IgG1, kappa, V domains shown) VH: QVQLVQSGAEVKKPGSSVKVSCTASGFNIEDTYIHWVRQAPGQGLEWMGRIDPANGNTKYDPKFQGRVTITADTSTNTAYMELSSLRSEDTAVYYCGRGLGAWFAYWGQGTLVTVSS VL: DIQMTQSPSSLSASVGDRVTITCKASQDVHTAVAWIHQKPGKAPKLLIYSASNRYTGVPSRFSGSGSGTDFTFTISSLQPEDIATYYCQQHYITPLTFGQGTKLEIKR	0.89

Can you look up the measured IC50 of humanized anti-human PD-L1 monoclonal antibody VLS15-VHS12 P1 (antibody, human IgG1, kappa, V domains shown) VH: EVQLVQSGAEVKKPGSSVKVSCKASGFNIEDTYIHWVRQAPGQGLEWMGRIDPAQGNTKYDPKFQGRVTITADTSTNTAYMELSSLRSEDTAVYYCGRGLGAWFAYWGQGTLVTVSS VL: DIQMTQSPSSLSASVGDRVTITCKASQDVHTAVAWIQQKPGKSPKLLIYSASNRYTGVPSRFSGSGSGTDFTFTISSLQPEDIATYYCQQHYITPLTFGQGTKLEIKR for me?
0.795

Dear colleague, I am looking for the recorded IC50 of the following binder: humanized anti-human PD-L1 monoclonal antibody VLS15-VHS12 P2 (antibody, human IgG1, kappa, V domains shown) VH: EVQLVQSGAEVKKPGSSVKVSCKASGFNIEDTYIHWVRQAPGQGLEWMGRIDPASGNTKYDPKFQGRVTITADTSTNTAYMELSSLRSEDTAVYYCGRGLGAWFAYWGQGTLVTVSS VL: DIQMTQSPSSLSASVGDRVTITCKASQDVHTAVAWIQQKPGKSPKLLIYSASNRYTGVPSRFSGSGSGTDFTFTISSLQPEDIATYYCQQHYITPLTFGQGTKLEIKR
0.755

// provenance: patent US20240301068A1
